The reported measurements were obtained from BindingDB's records for doi:10.1021/ml3000879.

Entries and their measured IC50 follow.
- study-system: Dual specificity protein kinase TTK (Homo sapiens) (UniProt P33981)
- test-summary: Inhibition of Mps1-mediated p38 MAPK phosphorylation after 90 mins by DELFIA assay

# smiles-entry, IC50 [nM]
records = [
    ("CCOc1nc(C(=O)NCc2ccccc2)cc(N)c1C#N", 529),
    ("CCOc1nc(NCCc2ccccc2)cc(N)c1C#N", 3970),
    ("CCOc1nc(C(=O)NCc2ccc(S(C)(=O)=O)cc2)cc(N)c1C#N", 568),
    ("CCOc1nc(Nc2ccc(C(N)=O)cc2)cc(N)c1C#N", 37),
    ("CCOc1nc(Nc2ccccc2)cc(N)c1C#N", 228),
    ("CCOc1nc(NC(=O)Cc2ccccc2)cc(N)c1C#N", 4200),
]
